biological target: dopamine D2 receptors (Homo sapiens (Human)); assay: Dopamine D2 receptor Gαi1 BRET (G protein trimer dissociation); assay type: cell-based; conditions: unit printed only in Cariprazine cell, read-out: Gαi1 BRET EC50
Sequence (P14416 whole entry): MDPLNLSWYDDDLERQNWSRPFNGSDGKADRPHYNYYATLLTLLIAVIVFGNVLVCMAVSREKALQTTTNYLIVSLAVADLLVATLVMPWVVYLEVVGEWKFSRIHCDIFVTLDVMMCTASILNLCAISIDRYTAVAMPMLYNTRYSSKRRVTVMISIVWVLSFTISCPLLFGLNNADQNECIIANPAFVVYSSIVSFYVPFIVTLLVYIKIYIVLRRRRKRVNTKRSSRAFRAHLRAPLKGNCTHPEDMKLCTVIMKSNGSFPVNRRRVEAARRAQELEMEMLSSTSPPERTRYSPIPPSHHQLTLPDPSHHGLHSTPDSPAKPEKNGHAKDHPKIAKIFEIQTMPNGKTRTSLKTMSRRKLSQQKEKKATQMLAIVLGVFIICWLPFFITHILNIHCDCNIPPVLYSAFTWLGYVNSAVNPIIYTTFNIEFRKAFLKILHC
pEC50: −log10 of the molar value.
METRIC_NAME: pEC50

>>> df
                                    compound  result_value
 0  CCOc1cccc2c3c(oc12)CN(CCCCc1ccc2ccc(=O)[nH]c2c1)CC3          8.88
 1  COc1cccc2c3c([nH]c12)CN(CC[C@H]1CC[C@H](NC(=O)N(C)C)CC1)CC3          7.77
 2  COc1cccc2c3c(oc12)CN(CC[C@H]1CC[C@H](NS(C)(=O)=O)CC1)CC3          7.33
 3  CCOc1cccc2c1cc1n2CCN(CCCCOc2ccc3ccc(=O)[nH]c3c2)C1          6.93
 4  COc1cccc2c1nc1n2CCN(CCCCOc2ccc3ccc(=O)[nH]c3c2)C1 [I-D1]          6.57
 5  COc1cccc2c3c(oc12)CN(CCCOc1ccc2ccc(=O)[nH]c2c1)CC3          9.82
 6  CC(C)Oc1cccc2c3c(oc12)CN(CC[C@H]1CC[C@H](NC(=O)N(C)C)CC1)CC3          7.98
 7  COc1cccc2c1cc1n2CCN(CCCCOc2ccc3ccc(=O)[nH]c3c2)C1          8.10
 8  COc1cccc2c3c(oc12)CN(CCCCOc1ccc2ccc(=O)n(C)c2c1)CC3          6.15
 9  COc1cccc2c3c([nH]c12)CN(CCCOc1ccc2ccc(=O)[nH]c2c1)CC3          7.89
10     COc1cccc2c3c(oc12)CN(CC1(O)CCCCC1)CC3          8.34
11  COc1cccc2c1nc1n2CCN(C/C=C/COc2ccc3c(c2)NC(=O)CC3)C1          6.80
12       COc1cccc2c1nc1n2CCN(CC2(O)CCCCC2)C1          7.10
13  COc1cccc2c1cc1n2CCN(C/C=C/COc2ccc3ccc(=O)[nH]c3c2)C1          7.02
14  COc1cccc2c3c(oc12)CN(CCCCOc1ccc2ccc(=O)[nH]c2c1)CC3          7.31
15  CCOc1cccc2c1cc1n2CCN(CC[C@H]2CC[C@H](NC(=O)N(C)C)CC2)C1          7.40
16  COc1cccc2c1nc1n2CCN(CCCOc2ccc3c(c2)NC(=O)CC3)C1          6.80
17  COc1cccc2c1cc1n2CCN(CC[C@H]2CC[C@H](NC(=O)N(C)C)CC2)C1          6.91
18  CCOc1cccc2c3c(oc12)CN(CC[C@H]1CC[C@H](NC(=O)N(C)C)CC1)CC3          8.36

meta.source: patent US20250109139A1
